Ref: patent EP2933270B1

Test system: SW480
Assay: MTT assay, growth inhibition of human rectal cancer cells
Format: cell-based
Conditions: Homo sapiens, 48 h
Procedure: For example, 180 µl suspension of human rectal cancer cells HCT116, Lovo, SW480 and HT29 at a concentration of 4×10^4/mL is added to 96-well culture plate, and pre-cultured under the conditions of 5% CO2, 37°C and saturated moisture for 24h. […]
endpoint label: IC50 (µM)
Give bare numbers, in µM.

Consider the worked cases shown below.
C[C@H]1[C@@H](O)O[C@@H]2O[C@@]3(C)CC[C@H]4[C@H](C)CC[C@@H]1[C@@]24OO3 [dihydroarteannuin] | 14.1
O=c1[nH]cc(F)c(=O)[nH]1 [fluorouracil] | 30.8

Turning to the following compound.
Lookup: Given the compound C[C@H]1[C@H](OC(=O)CCC(=O)O)O[C@@H]2O[C@@]3(C)CC[C@H]4[C@H](C)CC[C@@H]1[C@@]24OO3 [artesunate] , what is its reported IC50?
Found: 1.82
